- Test Name: chemical genetic growth profiling, strain panel (AID 1159580);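 also: tested at 20 µM; growth read once vehicle control cultures reached saturation at 30 °C; 1 = growth at the plate median or of vehicle wells; lower values mean less growth of the strain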
- Experimental Setup: S. cerevisiae deletion strains, growth OD, locus YER155C, strain BEM2
Out of some 5,500 compounds screened, about 2,000 (36%) were called active. Not shown: some 18% with an inconclusive outcome. Rule as the data show it: active = normalized growth mostly below about 0.91 (no sharp cut-off); inconclusive = no clear call, values can overlap the other calls; inactive = mostly above about 0.92. The list shows a part of the results.
Labels: class 1 for active, class 0 for inactive

>>> df
                                    molecule  class_label
 0  CC1C[C@H]2CC(=O)[C@H]3CCCN4CCC[C@H]2[C@]34C1 (stereo partly drawn)      class 0
 1  CC[C@H](C)C(=O)O[C@H]1C[C@@H](C)C=C2C=C[C@H](C)[C@H](CC[C@@H]3C[C@@H](O)CC(=O)O3)[C@H]21      class 0
 2  Nc1ccn(C2O[C@H](CO)[C@@H](O)[C@@H]2O)c(=O)n1 (stereo partly drawn)      class 0
 3  C=C1CCC(C2CC(=O)OC2=O)C(=O)CCC2C1CC2(C)C (stereo not drawn)      class 0
 4               Oc1ccc(Cl)cc1Cc1cc(Cl)ccc1O      class 1
 5  C=C1CCC(OC(C)=O)/C(C)=C/C[C@@H]2[C@@H]1CC2(C)C (stereo partly drawn)      class 0
 6  O=C1[C@H](CCC(O)c2ccc(F)cc2)[C@@H](c2ccc(O)cc2)N1c1ccc(F)cc1 (stereo partly drawn)      class 0
 7                 Nc1ccc(N=Nc2ccccc2)c(N)n1      class 0
 8  CC(=O)OC1CCC2(C)C(=CC=C3C2CCC2(C)C3CCC2C(C)/C=C/C(C)C(C)C)C1(C)C (stereo not drawn)      class 0
 9  C=C1C(=O)O[C@@H]2C3O[C@]3(C)CC/C=C(\C)CC[C@@H]12 (stereo partly drawn)      class 1
10                               OCc1ccccc1O      class 0
11  CCC(C)(C)C(=O)O[C@H]1C[C@@H](C)C=C2C=C[C@H](C)[C@H](CC[C@@H]3C[C@@H](O)CC(=O)O3)[C@H]21      class 0
12  CC1(C)C2(Cl)C(Cl)C(Cl)C(Cl)(C(Cl)Cl)C1(Cl)C2Cl (stereo not drawn)      class 0

---

- Test Name: chemical genetic growth profiling, strain panel (AID 1159580)
- Experimental Setup: S. cerevisiae deletion strains, growth OD, locus YOR070C, strain gyp1, stronger effect = lower value
The whole screen tested about 5,500 compounds, of which about 2,000 (36%) were called active. Roughly 18% stayed inconclusive and do not appear here. The list shows a part of the results.
Parameter: normalized growth

>>> df
                                   compound  measured
0                CC(=O)OCC[C@H](C)CCC=C(C)C     0.994
1  N[C@@H](CC(=O)N1CCn2c(nnc2C(F)(F)F)C1)Cc1cc(F)c(F)cc1F     0.995
2        CC1OC1P(=O)(O)O (stereo not drawn)     0.981
3                  CCNC(=O)CC[C@H](N)C(=O)O      1.01
4            CCCOc1ccc(C(=O)OCCN(CC)CC)cc1N      1.02
5                CCN(CC)CCOC(=O)c1ccc(N)cc1     0.996
6  CC[C@H](C)C(=O)O[C@H]1C[C@@H](C)C=C2C=C[C@H](C)[C@H](CC[C@@H]3C[C@@H](O)CC(=O)O3)[C@H]21         1
7              CCCCNc1ccc(C(=O)OCCN(C)C)cc1         1

---

- Test Name: chemical genetic growth profiling, strain panel (AID 1159580)
- Experimental Setup: S. cerevisiae deletion strains, growth OD, locus YHR094C, strain hxt1, stronger effect = lower value
About 2,000 (36%) of roughly 5,500 compounds were called active. Inconclusive results (about 18%) are left out. The list shows a part of the results.
Parameter: normalized growth

>>> df
                                   compound          parameter          measured
0           CC(C)[C@@H]1CC[C@@H](C)C[C@H]1O  normalized growth   1.02 (inactive)
1  CC1(C)C2CC(=O)[C@]3(C)C(CC[C@@]4(C)[C@H](c5ccoc5)OC(=O)[C@H]5O[C@]543)[C@@]2(C)C=C[C@@H]1O (stereo partly drawn)  normalized growth  0.999 (inactive)
2  C[N+]1(C)C2CC(OC(=O)[C@@H](CO)c3ccccc3)CC1C1OC12 (stereo partly drawn)  normalized growth   1.01 (inactive)

---

- Test Name: chemical genetic growth profiling, strain panel (AID 1159580);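 also: tested at 20 µM; growth read once vehicle control cultures reached saturation at 30 °C; 1 = growth at the plate median or of vehicle wells; lower values mean less growth of the strain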
- Experimental Setup: S. cerevisiae deletion strains, growth OD, locus YHR027C, strain rpn1, stronger effect = lower value
Among all 5,500 compounds or so, about 2,000 (36%) were called active. Roughly 18% stayed inconclusive and do not appear here. The list shows a part of the results.
normalized growth overview
Parameter: normalized growth

>>> df
                                        smi  measured
0  N[C@@H](CC(=O)N1CCn2c(nnc2C(F)(F)F)C1)Cc1cc(F)c(F)cc1F     0.985
1                   CCN(CC)C(=O)c1cccc(C)c1      1.02
2            CCCOc1ccc(C(=O)OCCN(CC)CC)cc1N         1

---

- Test Name: chemical genetic growth profiling, strain panel (AID 1159580);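 also: tested at 20 µM; growth read once vehicle control cultures reached saturation at 30 °C; 1 = growth at the plate median or of vehicle wells; lower values mean less growth of the strain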
- Experimental Setup: S. cerevisiae deletion strains, growth OD, locus YML016C, strain PPZ1, stronger effect = lower value
The whole screen tested about 5,500 compounds, of which about 2,000 (36%) were called active. Roughly 18% stayed inconclusive and do not appear here. The list shows a part of the results.
normalized growth overview
Parameter: normalized growth

>>> df
                                    compound  measured
 0  Nc1ccn(C2O[C@H](CO)[C@@H](O)[C@@H]2O)c(=O)n1 (stereo not given in full)      1.01
 1  O=C1CC2OCC=C3CN4CC[C@]56c7ccccc7N1C5[C@H]2[C@H]3CC46 (stereo not given in full)      1.01
 2  Cc1cc(NC(=O)C2=C(O)c3ccccc3S(=O)(=O)N2C)no1     0.987
 3  CC[N+](CC)(CC)CCOc1cccc(OCC[N+](CC)(CC)CC)c1OCC[N+](CC)(CC)CC      1.01
 4  CC[C@H](C)C(=O)O[C@H]1CCC=C2C=C[C@H](C)C(CCC3C[C@@H](O)CC(=O)O3)[C@H]21 (stereo not given in full)     0.999
 5                    O=C1NC(=O)C(=O)C(=O)N1      1.01
 6  Oc1ccc2c(c1)OCC1c3cc4c(cc3OC21)OCO4 (stereo not given)     0.983
 7                  CCNC(=O)CC[C@H](N)C(=O)O     0.993
 8  COc1cc2c(cc1OC)C1Cc3ccc(OC)c(OC)c3CN1CC2 (stereo not given)     0.988
 9  CC1(C)C2CC(=O)[C@]3(C)C(CC[C@@]4(C)[C@H](c5ccoc5)OC(=O)[C@H]5O[C@]543)[C@@]2(C)C=C[C@@H]1O (stereo not given in full)      1.03
10               NC(N)=NS(=O)(=O)c1ccc(N)cc1      1.01
11  COc1ccc2c(c1O)OCC1c3cc4c(cc3OC21)OCO4 (stereo not given)     0.992
12                         NC(=O)c1cccc(N)c1         1
13  CC(C)NCC(O)c1cc(O)cc(O)c1 (stereo not given)      1.01
14  NC(CO)C(=O)NNCc1ccc(O)c(O)c1O (stereo not given)      1.01

---

- Test Name: chemical genetic growth profiling, strain panel (AID 1159580);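 also: tested at 20 µM; growth read once vehicle control cultures reached saturation at 30 °C; 1 = growth at the plate median or of vehicle wells; lower values mean less growth of the strain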
- Experimental Setup: S. cerevisiae deletion strains, growth OD, locus YEL037C, strain rad23, stronger effect = lower value
Screen size: about 5,500 compounds; about 2,000 (36%) were called active. Not shown: some 18% with an inconclusive outcome. Some of the results follow.
normalized growth overview
Parameter: normalized growth

In [3]: df
Out[3]:
                                   compound  measured
0  CC[C@H](C)C(=O)O[C@H]1CCC=C2C=C[C@H](C)C(CCC3C[C@@H](O)CC(=O)O3)[C@H]21 (stereo partly specified)         1
1  C=C1CCC2C(CC2(C)C)C(=C)CC/C1=N\O (stereo unspecified)     0.993
2  Nc1ccn(C2O[C@H](CO)[C@@H](O)[C@@H]2O)c(=O)n1 (stereo partly specified)     0.973
3               Oc1ccc(Cl)cc1Cc1cc(Cl)ccc1O     0.271
4           CC(C)NC[C@H](O)COc1cccc2ccccc12      1.02
5  CCOC(=O)[C@H](CCc1ccccc1)N[C@@H](C)C(=O)N1[C@H](C(=O)O)C[C@@H]2CCC[C@@H]21     0.982
